The entries below are paired with their reported Ki.
TEST SYSTEM: UniProtKB P42336
PROTOCOL CONDITIONS: read-out: PI3Kα AlphaScreen ® Ki
Express the result in nM but write the number alone.

>>> reading("Cc1nc(N)nc(-c2cc([C@@H](C)N3CCN(S(C)(=O)=O)CC3)cnc2Nc2ccc(Cl)nc2)n1")
44
>>> reading("Cc1nc(N)nc(-c2cc(CN3CCN(S(C)(=O)=O)CC3)cnc2Nc2cncnc2)n1")
17
>>> reading("COc1ccc(Nc2ncc(C(C)N3CCN(S(C)(=O)=O)CC3)nc2-c2cc(N)nc(C)n2)cn1 (stereo not shown)")
11

Input COc1ccc(COCc2cnc(Nc3cccc4[nH]ccc34)c(-c3nc(C)nc4[nH]cnc34)c2)cc1 , output reported Ki.
402

* * *

The entries below are paired with their reported POC (Percent of control) ROCK2.
TEST SYSTEM: ProfilerPro Kinase Selectivity Assay Kit kinases (Homo sapiens, UniProt O75116)
Type: biochemical
PROTOCOL CONDITIONS: ROCK2; 1 μM compound concentration
Express the result in POC but write the number alone.

>>> reading("c1cnc(Nc2cccc3[nH]ncc23)c(-c2ncnc3[nH]cnc23)c1 [Example 18]")
98

Input Cc1cnc(Nc2cccc3[nH]ncc23)c(-c2nc(C)nc(N)n2)c1 [Example 47] , output reported POC (Percent of control) ROCK2.
93

* * *

Test system: phosphorylation of Akt at Serine 473 in U87 MG cells
PROTOCOL CONDITIONS: read-out: U87Cell IC50; pAkt (Ser 473), U87 MG cells, two hours with compound
MEASURE: pIC50
The read-out pIC50 is expressed as -log10 of concentration in moles per litre.

Input COc1ccc(Nc2ncc([C@@H](O)C(F)(F)F)cc2-c2nc(C)nc(N)n2)cn1.COc1ccc(Nc2ncc([C@H](O)C(F)(F)F)cc2-c2nc(C)nc(N)n2)cn1 (racemic) , output reported pIC50.
7.05

* * *

TEST SYSTEM: ProfilerPro Kinase Selectivity Assay Kit kinases (Homo sapiens, UniProt O75116)
Type: biochemical
PROTOCOL CONDITIONS: ROCK2; 1 μM compound concentration
The entries below are paired with their reported POC (Percent of control) ROCK2.
Please state the number and follow it with the unit.

Here is how some compounds turned out for POC (Percent of control) ROCK2.
>>> reading("Cc1nc(N)nc(-c2cccnc2Nc2cccc3[nH]ccc23)n1")
"94 POC"
>>> reading("COc1ccc(Nc2ncccc2-c2nc(C)nc3[nH]cnc23)cn1")
"100 POC"
>>> reading("c1cnc(Nc2cccc3[nH]ccc23)c(-c2ncnc3[nH]cnc23)c1")
"104 POC"
>>> reading("COc1ccc(Nc2ncccc2-c2ncnc3[nH]cnc23)cn1")
"101 POC"

# evaluate next
Input Cc1nc(N)cc(-c2cccnc2Nc2cccc3[nH]ncc23)n1 , output reported POC (Percent of control) ROCK2.
95 POC

* * *

TEST SYSTEM: PI3Kα (Homo sapiens (Human))
Sequence (P42336 whole entry): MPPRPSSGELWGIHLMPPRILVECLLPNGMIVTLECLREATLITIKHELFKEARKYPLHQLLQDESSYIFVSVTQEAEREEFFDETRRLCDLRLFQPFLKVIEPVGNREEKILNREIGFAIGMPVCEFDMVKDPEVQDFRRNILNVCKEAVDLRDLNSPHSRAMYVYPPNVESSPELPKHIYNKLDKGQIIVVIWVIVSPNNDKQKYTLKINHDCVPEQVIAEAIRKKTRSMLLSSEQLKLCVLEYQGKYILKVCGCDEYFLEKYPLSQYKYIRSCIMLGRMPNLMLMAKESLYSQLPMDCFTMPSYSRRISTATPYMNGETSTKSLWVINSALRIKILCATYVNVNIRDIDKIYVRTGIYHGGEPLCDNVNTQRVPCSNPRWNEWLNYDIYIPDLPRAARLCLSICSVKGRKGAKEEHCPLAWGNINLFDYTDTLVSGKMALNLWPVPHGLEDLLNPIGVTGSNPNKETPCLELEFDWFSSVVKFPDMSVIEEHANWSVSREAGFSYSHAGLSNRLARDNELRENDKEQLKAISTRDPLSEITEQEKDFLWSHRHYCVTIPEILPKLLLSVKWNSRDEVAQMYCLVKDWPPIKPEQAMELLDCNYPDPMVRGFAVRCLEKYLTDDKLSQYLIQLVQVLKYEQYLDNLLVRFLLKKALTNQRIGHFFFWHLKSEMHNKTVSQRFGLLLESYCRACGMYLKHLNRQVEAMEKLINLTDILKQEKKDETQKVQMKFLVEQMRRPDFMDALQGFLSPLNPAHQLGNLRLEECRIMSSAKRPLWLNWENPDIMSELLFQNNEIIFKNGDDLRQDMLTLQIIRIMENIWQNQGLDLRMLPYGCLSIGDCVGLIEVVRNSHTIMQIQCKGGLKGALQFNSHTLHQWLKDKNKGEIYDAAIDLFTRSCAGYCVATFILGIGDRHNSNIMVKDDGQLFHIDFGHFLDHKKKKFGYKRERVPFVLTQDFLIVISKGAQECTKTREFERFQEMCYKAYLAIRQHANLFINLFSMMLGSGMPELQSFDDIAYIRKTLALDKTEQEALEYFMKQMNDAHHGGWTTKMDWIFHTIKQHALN
Sequence (P27986 whole entry partner): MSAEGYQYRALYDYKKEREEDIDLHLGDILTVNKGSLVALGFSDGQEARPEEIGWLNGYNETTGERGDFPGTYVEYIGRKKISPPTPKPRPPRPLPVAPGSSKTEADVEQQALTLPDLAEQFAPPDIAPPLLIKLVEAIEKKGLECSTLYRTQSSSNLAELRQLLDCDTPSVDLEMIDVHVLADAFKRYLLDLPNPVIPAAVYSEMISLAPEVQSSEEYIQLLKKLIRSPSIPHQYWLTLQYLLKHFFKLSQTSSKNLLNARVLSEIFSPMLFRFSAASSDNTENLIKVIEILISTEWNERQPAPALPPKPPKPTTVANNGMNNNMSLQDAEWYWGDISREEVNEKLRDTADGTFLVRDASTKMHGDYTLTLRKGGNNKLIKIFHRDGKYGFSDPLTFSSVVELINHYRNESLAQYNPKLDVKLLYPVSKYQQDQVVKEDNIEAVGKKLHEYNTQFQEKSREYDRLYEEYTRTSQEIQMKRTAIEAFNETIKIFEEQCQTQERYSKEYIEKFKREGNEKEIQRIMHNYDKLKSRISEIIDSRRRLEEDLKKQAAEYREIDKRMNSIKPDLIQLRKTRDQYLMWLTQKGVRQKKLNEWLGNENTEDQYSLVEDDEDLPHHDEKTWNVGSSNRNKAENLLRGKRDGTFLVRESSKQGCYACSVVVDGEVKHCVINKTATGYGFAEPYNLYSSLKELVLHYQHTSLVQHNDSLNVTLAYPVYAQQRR
PROTOCOL CONDITIONS: read-out: PI3Kα AlphaScreen ® Ki
The entries below are paired with their reported Ki.
Express the result in nM but write the number alone.

>>> reading("COc1ccc(Nc2ncc([C@H](C)N3CCN(S(C)(=O)=O)CC3)cc2-c2nc(C)nc(N)n2)cn1")
8
>>> reading("COc1ncc(Nc2ncc(C(C)(C)O)cc2-c2cc(N)nc(C)n2)cc1F")
13
>>> reading("COc1ccc(Nc2nccnc2-c2nc(C)nc(N)n2)cn1")
327

# evaluate next
Input COc1ccc(Nc2cnc(Nc3ccc(OC)nc3)c(-c3nc(C)nc4[nH]cnc34)c2)cc1 , output reported Ki.
9

* * *

TEST SYSTEM: ProfilerPro Kinase Selectivity Assay Kit kinases (Homo sapiens)
Assay type: biochemical
PROTOCOL CONDITIONS: RSK1; 1 μM compound concentration
MEASURE: POC (Percent of control) RSK1 (POC)
Express the result in POC but write the number alone.

Here is how some compounds turned out for POC (Percent of control) RSK1.
>>> reading("COc1ccc(Nc2ncc(CN3CCN(C(C)=O)CC3)cc2-c2nc(C)nc3[nH]cnc23)cn1 [Example 89]")
99
>>> reading("Cc1cnc(Nc2cccc3[nH]ccc23)c(-c2nc(C)nc(N)n2)c1 [Example 46]")
100
>>> reading("Cc1nc(N)nc(-c2cccnc2Nc2cccc3[nH]ccc23)n1 [Example 22]")
100

Input Cc1nc(N)cc(-c2cccnc2Nc2cccc3[nH]ncc23)n1 [Example 27] , output reported POC (Percent of control) RSK1.
89

Input c1cnc(Nc2cccc3[nH]ncc23)c(-c2ncnc3[nH]cnc23)c1 [Example 18] , output reported POC (Percent of control) RSK1.
96

Input Cc1nc(-c2cccnc2Nc2cccc3[nH]ncc23)c2nc[nH]c2n1 [Example 57] , output reported POC (Percent of control) RSK1.
97

Input CCc1cnc(Nc2ccc(OC)nc2)c(-c2nc(C)nc3[nH]cnc23)c1 [Example 74] , output reported POC (Percent of control) RSK1.
100

Input COc1ccc(Nc2ncc(Cc3ccc(S(C)(=O)=O)cc3)cc2-c2nc(C)nc3[nH]cnc23)cn1 [Example 103] , output reported POC (Percent of control) RSK1.
100

Input Cc1nc(N)nc(-c2cccnc2Nc2cccc(O)c2)n1 [Example 23] , output reported POC (Percent of control) RSK1.
103

* * *

The entries below are paired with their reported pKi.
TEST SYSTEM: PI3Kα (Homo sapiens (Human))
PROTOCOL CONDITIONS: read-out: PI3Kα AlphaScreen ® Ki
The read-out pKi is expressed as -log10 of concentration in moles per litre.

Here is how some compounds turned out for pKi.
>>> reading("CCNc1cnc(Nc2ccc(OC)nc2)c(-c2nc(C)nc3[nH]cnc23)c1")
6.74
>>> reading("Cc1nc(N)nc(-c2cc(CN3CCOCC3)cnc2Nc2cnc(Cl)c(NS(=O)(=O)N(C)C)c2)n1")
8.15
>>> reading("Cc1nc(N)nc(-c2cc(CN3CCN(S(C)(=O)=O)CC3)cnc2Nc2ccc3ccncc3c2)n1")
7.17

# evaluate next
Specify pKi for COc1ncc(Nc2nc(-c3ccncc3)ccc2-c2nc(C)nc(N)n2)cc1F , system PI3Kα (Homo sapiens (Human)).
7.20

* * *

The entries below are paired with their reported POC (Percent of control) BTK.
TEST SYSTEM: ProfilerPro Kinase Selectivity Assay Kit kinases (Homo sapiens)
Type: biochemical
PROTOCOL CONDITIONS: BTK; 1 μM compound concentration
Express the result in POC but write the number alone.

>>> reading("Cc1cnc(Nc2cccc3[nH]ncc23)c(-c2nc(C)nc(N)n2)c1")
93

Input COc1ccc(Nc2ncc(Cc3ccc(S(C)(=O)=O)cc3)cc2-c2nc(C)nc3[nH]cnc23)cn1 , output reported POC (Percent of control) BTK.
97

Input CCc1cnc(Nc2ccc(OC)nc2)c(-c2nc(C)nc3[nH]cnc23)c1 , output reported POC (Percent of control) BTK.
99

Input COc1ccc(Nc2ncccc2-c2nc(C)nc3[nH]cnc23)cn1 , output reported POC (Percent of control) BTK.
102

Input Cc1cnc(Nc2cccc3[nH]ccc23)c(-c2nc(C)nc(N)n2)c1 , output reported POC (Percent of control) BTK.
98

* * *

TEST SYSTEM: human mutant B-raf (HuBraf V600E) (Homo sapiens (Human), UniProt P15056, V600E)
Sequence (P15056 whole entry V600E): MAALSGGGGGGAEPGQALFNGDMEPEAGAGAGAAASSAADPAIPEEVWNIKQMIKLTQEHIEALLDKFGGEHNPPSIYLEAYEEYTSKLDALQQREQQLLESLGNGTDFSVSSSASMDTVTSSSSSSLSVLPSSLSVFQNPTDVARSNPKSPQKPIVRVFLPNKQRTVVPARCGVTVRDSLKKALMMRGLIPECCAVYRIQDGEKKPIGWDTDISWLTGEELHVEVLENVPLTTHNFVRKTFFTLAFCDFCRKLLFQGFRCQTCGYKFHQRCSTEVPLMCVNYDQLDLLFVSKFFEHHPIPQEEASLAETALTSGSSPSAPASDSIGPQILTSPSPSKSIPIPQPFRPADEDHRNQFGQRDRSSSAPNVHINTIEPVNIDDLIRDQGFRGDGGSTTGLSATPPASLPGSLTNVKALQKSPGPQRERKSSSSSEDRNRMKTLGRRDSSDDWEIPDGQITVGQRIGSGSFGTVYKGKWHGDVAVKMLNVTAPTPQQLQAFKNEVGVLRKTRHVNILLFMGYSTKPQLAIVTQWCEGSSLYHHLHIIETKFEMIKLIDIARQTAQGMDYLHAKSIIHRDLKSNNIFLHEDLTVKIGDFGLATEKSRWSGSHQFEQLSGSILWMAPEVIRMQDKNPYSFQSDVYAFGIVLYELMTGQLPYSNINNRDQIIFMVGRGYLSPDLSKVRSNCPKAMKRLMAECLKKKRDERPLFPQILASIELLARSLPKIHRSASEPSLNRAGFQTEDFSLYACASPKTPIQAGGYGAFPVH
PROTOCOL CONDITIONS: at 10 μM compound concentration; POC = 100 − percent inhibition
MEASURE: Mutant B-raf HTRF Assay POC Mean n = 2

>>> reading("Cc1nc(N)nc(-c2cccnc2Nc2cccc(O)c2)n1")
"100% of Control (POC)"
>>> reading("COc1ccc(Nc2ncc(CCO)cc2-c2nc(C)nc3[nH]cnc23)cn1")
"94% of Control (POC)"
>>> reading("COc1ccc(Nc2ncccc2-c2nc(C)nc3[nH]cnc23)cn1")
"97% of Control (POC)"

Input COc1ccc(Nc2ncccc2-c2nc(C)nc(N)n2)cn1 , output reported Mutant B-raf HTRF Assay POC Mean n = 2.
95% of Control (POC)

Input COc1ccc(Nc2ncc(CN3CCOCC3)cc2-c2nc(C)nc(N)n2)cn1 , output reported Mutant B-raf HTRF Assay POC Mean n = 2.
94% of Control (POC)

Input COc1ccc(Nc2ncc(CO)cc2-c2nc(C)nc3[nH]cnc23)cn1 , output reported Mutant B-raf HTRF Assay POC Mean n = 2.
108% of Control (POC)

Input COc1ccc(Nc2cnc(Nc3ccc(OC)nc3)c(-c3nc(C)nc4[nH]cnc34)c2)cc1 , output reported Mutant B-raf HTRF Assay POC Mean n = 2.
99% of Control (POC)

* * *

TEST SYSTEM: ProfilerPro Kinase Selectivity Assay Kit kinases (Homo sapiens, UniProt O14757)
Type: biochemical
PROTOCOL CONDITIONS: CHK1; 1 μM compound concentration
MEASURE: POC (Percent of control) CHK1 (POC)
Express the result in POC but write the number alone.

Here is how some compounds turned out for POC (Percent of control) CHK1.
>>> reading("Cc1nc(N)nc(-c2cc(CN3CCN(S(C)(=O)=O)CC3)cnc2Nc2cccc(O)c2)n1")
96
>>> reading("Cc1cnc(Nc2cccc3[nH]ccc23)c(-c2nc(C)nc(N)n2)c1")
98
>>> reading("COc1ccc(Nc2ncc(Cc3ccc(S(C)(=O)=O)cc3)cc2-c2nc(C)nc3[nH]cnc23)cn1")
107
>>> reading("COc1ccc(Nc2ncc(CN3CCN(C(C)=O)CC3)cc2-c2nc(C)nc3[nH]cnc23)cn1")
99

# evaluate next
Input Cc1nc(N)nc(-c2cccnc2Nc2cccc(O)c2)n1 , output reported POC (Percent of control) CHK1.
105
